Reference source for all entries: PubChem BioAssay AID1963965

Tested on: 996289-038-R-J1-PDC spheroid viability;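 further: luminescence used as a proxy for viable cell amount; spheroids exposed to compounds for seven days before viability read; percent viability relative to DMSO vehicle control as 100%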
Experiment: Anticancer human tumor 996289-038-R-J1-PDC patient-derived colon adenocarcinoma cell line growth inhibition [PI3K]
Details: second compound 0.00316 µM; first compound 0.316 µM; active compounds read low; spheroids with HUVEC and MSC
Experimental endpoint: viability, T/C (%)
Could you give me the number in %? Just the number is fine.

# Compound, Unit text, Quantitative result
measured = [
    ("CC1(C)CCC(CN2CCN(c3ccc(C(=O)NS(=O)(=O)c4ccc(NCC5CCOCC5)c([N+](=O)[O-])c4)c(Oc4cnc5[nH]ccc5c4)c3)CC2)=C(c2ccc(Cl)cc2)C1 + COc1c(OCCCN2CCOCC2)ccc2c3n(c(=NC(=O)c4cnc(N)nc4)nc12)CCN3", "%", 94.2),
]

viability, T/C measured on CC1(C)CCC(Nc2ncc(C(F)(F)F)c(-c3c[nH]c4c(P(C)(C)=O)c(C#N)ccc34)n2)CN1 (stereo not given) + CC(Nc1ccc2c(c1)OCCn1cc(N3C(=O)OCC3C(F)F)nc1-2)C(N)=O = 81

viability, T/C measured on Cn1ncc(Cl)c1-c1cc(C(=O)NC(CN)Cc2cccc(F)c2)sc1Cl (stereo not given) + COc1c(OCCCN2CCOCC2)ccc2c3n(c(=NC(=O)c4cnc(N)nc4)nc12)CCN3 = 82

viability, T/C measured on C#Cc1c(F)ccc2cc(O)cc(-c3ncc4c(N5CC6CCC(C5)N6)nc(OCC56CCCN5CC(F)C6)nc4c3F)c12 (stereo not given) + CC(Nc1ccc2c(c1)OCCn1cc(N3C(=O)OCC3C(F)F)nc1-2)C(N)=O = 67.4

viability, T/C measured on CC1(C)CCC(Nc2ncc(C(F)(F)F)c(-c3c[nH]c4c(P(C)(C)=O)c(C#N)ccc34)n2)CN1 (stereo not given) + COc1c(OCCCN2CCOCC2)ccc2c3n(c(=NC(=O)c4cnc(N)nc4)nc12)CCN3 = 80
